# IC50 per entry
# Subject of test: PIK3CD (Human) (UniProt O00329)
# Sequence (O00329 whole entry, looked up): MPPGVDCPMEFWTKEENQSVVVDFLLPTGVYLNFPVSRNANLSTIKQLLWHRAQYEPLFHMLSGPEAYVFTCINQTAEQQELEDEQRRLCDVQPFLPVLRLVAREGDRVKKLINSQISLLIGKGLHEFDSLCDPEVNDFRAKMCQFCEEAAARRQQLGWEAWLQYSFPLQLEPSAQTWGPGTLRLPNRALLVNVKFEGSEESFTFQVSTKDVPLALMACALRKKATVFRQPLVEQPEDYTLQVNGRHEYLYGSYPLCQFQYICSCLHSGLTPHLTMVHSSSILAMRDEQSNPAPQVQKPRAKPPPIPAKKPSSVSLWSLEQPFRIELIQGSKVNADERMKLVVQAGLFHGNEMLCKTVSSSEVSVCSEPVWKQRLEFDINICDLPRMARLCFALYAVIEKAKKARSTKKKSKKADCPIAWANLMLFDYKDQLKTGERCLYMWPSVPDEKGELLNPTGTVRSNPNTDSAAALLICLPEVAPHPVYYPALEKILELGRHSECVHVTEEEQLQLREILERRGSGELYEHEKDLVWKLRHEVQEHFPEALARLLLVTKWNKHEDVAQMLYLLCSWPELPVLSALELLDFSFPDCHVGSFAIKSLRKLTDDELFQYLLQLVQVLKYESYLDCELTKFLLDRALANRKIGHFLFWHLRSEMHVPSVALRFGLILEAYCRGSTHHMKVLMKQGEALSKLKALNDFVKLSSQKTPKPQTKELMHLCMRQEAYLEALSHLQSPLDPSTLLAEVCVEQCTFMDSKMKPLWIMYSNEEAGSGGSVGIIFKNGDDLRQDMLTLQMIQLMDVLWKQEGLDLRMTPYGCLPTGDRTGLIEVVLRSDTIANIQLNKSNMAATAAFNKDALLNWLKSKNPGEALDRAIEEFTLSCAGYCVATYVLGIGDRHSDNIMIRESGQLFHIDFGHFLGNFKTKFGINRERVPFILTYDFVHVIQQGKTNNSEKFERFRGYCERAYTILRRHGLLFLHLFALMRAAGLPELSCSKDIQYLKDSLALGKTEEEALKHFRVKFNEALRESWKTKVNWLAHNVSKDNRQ
# Procedure text: Cell-Based Assay
# Assay conditions: rat-1
The figure you give is taken to be in µM; do not add the unit.

Structure smiles: CS(=O)(=O)N1CC[C@H](n2c([C@@H]3CCCN3c3ncnc4[nH]cnc34)nc3cccc(Cl)c3c2=O)C1
Subject of test: PIK3CD (Human) (UniProt O00329)
Unit text: µM
IC50: 0.939

Structure smiles: N#Cc1c(N)ncnc1N1CCC[C@H]1c1nc2cccc(C(F)(F)F)c2c(=O)n1-c1cccc(F)c1
Subject of test: PIK3CD (Human) (UniProt O00329)
Unit text: µM
IC50: 0.038

Structure smiles: Nc1nc(N2CSC[C@H]2c2nc3cccc(Cl)c3c(=O)n2-c2ccccc2)c2nc[nH]c2n1
Subject of test: PIK3CD (Human) (UniProt O00329)
Unit text: µM
IC50: 0.046

Please look at the following molecule next.
Could you tell me which IC50 is on file for "Cc1nc(N)nc(N2C[C@@H](O)C[C@H]2c2nc3cccc(Cl)c3c(=O)n2-c2ccccc2)c1C#N" ?
0.004

* * *

# Subject of test: UniProt:P42336
# Procedure text: Cell-Based Assay
# Assay conditions: rat-1
# pIC50 per entry
# pIC50: negative log10 of molar concentration; output just the value

# annotated cases, reported pIC50 shown
Structure smiles: Cc1ccccc1-n1c([C@@H]2CCCN2c2ncnc(N)c2C#N)nc2cccc(Cl)c2c1=O
Experimental endpoint: pIC50
Value measured: 5.66

Structure smiles: N#Cc1c(N)ncnc1N1CCC[C@H]1c1nc2cccc(Cl)c2c(=O)n1C1CC1
Experimental endpoint: pIC50
Value measured: 5.40

Structure smiles: O=c1c2c(Cl)cccc2nc([C@@H]2CCCN2c2ncnc3scnc23)n1-c1ccccc1
Experimental endpoint: pIC50
Value measured: 5.33

Please look at the following compound next.
Enter reported pIC50 observed with UniProt:P42336 for "Cc1c(F)ccc2nc([C@@H]3C[C@H](O)CN3c3ncnc(N)c3C#N)n(-c3ccccc3)c(=O)c12"
5.57

* * *

# Subject of test: PIK3CA (human) (UniProt P42336)
# Sequence (P42336 whole entry, looked up): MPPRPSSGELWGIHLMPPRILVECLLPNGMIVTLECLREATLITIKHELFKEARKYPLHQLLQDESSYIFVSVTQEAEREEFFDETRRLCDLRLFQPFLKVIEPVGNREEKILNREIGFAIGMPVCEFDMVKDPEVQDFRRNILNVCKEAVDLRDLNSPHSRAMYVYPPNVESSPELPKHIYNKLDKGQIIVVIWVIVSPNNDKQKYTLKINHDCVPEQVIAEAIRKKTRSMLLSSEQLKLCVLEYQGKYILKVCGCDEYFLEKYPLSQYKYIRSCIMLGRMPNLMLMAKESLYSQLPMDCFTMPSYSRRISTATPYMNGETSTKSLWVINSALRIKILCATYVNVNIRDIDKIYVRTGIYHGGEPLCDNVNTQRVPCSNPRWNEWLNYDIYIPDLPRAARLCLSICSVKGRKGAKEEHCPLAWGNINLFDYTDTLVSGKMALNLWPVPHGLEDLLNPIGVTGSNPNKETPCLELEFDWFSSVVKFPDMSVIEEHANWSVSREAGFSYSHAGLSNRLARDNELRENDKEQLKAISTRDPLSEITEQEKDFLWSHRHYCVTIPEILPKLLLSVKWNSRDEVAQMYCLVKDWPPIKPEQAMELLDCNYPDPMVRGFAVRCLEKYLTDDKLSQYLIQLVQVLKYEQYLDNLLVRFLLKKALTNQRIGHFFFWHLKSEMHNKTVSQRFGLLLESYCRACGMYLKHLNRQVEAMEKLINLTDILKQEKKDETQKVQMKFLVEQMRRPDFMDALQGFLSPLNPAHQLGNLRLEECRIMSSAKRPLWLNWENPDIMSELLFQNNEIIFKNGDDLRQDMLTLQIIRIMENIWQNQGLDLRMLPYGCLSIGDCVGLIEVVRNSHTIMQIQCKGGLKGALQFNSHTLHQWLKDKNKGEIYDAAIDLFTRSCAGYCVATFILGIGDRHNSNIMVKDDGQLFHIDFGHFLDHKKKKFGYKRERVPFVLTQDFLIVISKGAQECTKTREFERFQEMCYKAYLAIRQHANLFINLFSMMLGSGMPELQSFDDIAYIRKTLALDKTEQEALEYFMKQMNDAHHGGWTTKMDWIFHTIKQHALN
# Procedure text: Cell-Based Assay
# Assay conditions: rat-1
# IC50 per entry
The figure you give is taken to be in µM; do not add the unit.

# annotated cases, reported IC50 shown
Structure smiles: Cc1nc(N)nc(N2C[C@@H](O)C[C@H]2c2nc3cccc(OC(F)F)c3c(=O)n2-c2ccccc2)c1C#N
Experimental endpoint: IC50
Unit text: µM
Value measured: 4.67
--
Structure smiles: Nc1nc(N2C[C@@H](O)C[C@H]2c2nc3cccc(C(F)(F)F)c3c(=O)n2-c2ccccc2)c2ncsc2n1
Experimental endpoint: IC50
Unit text: µM
Value measured: 5.31
--
Structure smiles: Cc1ccccc1-n1c([C@@H]2CSCN2c2ncnc(N)c2C#N)nc2cccc(Cl)c2c1=O
Experimental endpoint: IC50
Unit text: µM
Value measured: 4.47
--
Structure smiles: Cc1c(F)ccc2nc([C@@H]3CCCN3c3ncnc(N)c3C#N)n(-c3ccccc3)c(=O)c12
Experimental endpoint: IC50
Unit text: µM
Value measured: 7.16

Could you tell me which IC50 is on file for "Nc1nc(N2C[C@@H](F)C[C@H]2c2nc3cccc(C(F)(F)F)c3c(=O)n2-c2ccccc2)c2nc[nH]c2n1" ?
3.3
